# Assay target: recombinant human 17β-HSD2 (Homo sapiens, UniProt P37059)
# Construct: made in house; host or cells: Sd9 (Sf9) insect cells, baculovirus (Bac to Bac Expression System)
# Procedure details: Inhibition of recombinant human 17β-HSD2 (estradiol to estrone conversion, HPLC/radioactivity)
# Format: biochemical
# Condition info: compound 1 μM; 50 nM estradiol, 1 mM NADH, 30 min RT
// label 0 strictly below 3% in inhibition at 1 µM; label 1 otherwise

Solved cases (5 shown):
C[C@]12CCC3c4ccccc4CCC3C1[C@H](CCC(=O)N1CCC3(CCOCC3)C1)c1c[nH]nc12 (stereo partly shown) = label 1
C[C@]12CCC3c4ccccc4CCC3C1[C@H](CCC(=O)Nc1cnccn1)c1c[nH]nc12 (stereo partly shown) = label 1
CC(C)c1ccc(NC(=O)CC[C@@H]2c3c[nH]nc3[C@@]3(C)CCC4c5ccccc5CCC4C23)nc1 (stereo partly shown) = label 1
C[C@]12CCC3c4cccc(F)c4CCC3C1[C@H](CCC(=O)NN1CCCCC1)c1c[nH]nc12 (stereo partly shown) = label 0
C[C@]12CCC3c4ccccc4CCC3C1[C@H](CCC(=O)NC1CCC1)c1c[nH]nc12 (stereo partly shown) = label 0

Lab note: next molecule to report on.
API: above_or_equal(metric=inhibition at 1 µM, cutoff=3%) for item C[C@]12CCC3c4cccc(F)c4CCC3C1[C@H](CCC(=O)N1CCNC(=O)C1)c1c[nH]nc12 (stereo partly shown) label 0

====

# Tested on: HSD1 enzyme that is expressed in rabbit placenta tissue
# Procedure details: Inhibition of E1 to E2 conversion in rabbit placenta tissue homogenate
# Format: biochemical
# Condition info: compound 100 nM, 30 nM estrone, 1 mM β-NADPH, 30 min
For each record, write down the corresponding Rabbit placenta inhibition % @100 nM.
Answers are plain numbers, in %.

Check out these entries, answers already filled in.
Cc1cc(NC(=O)CC[C@@H]2c3c[nH]nc3[C@@]3(C)CCC4c5cccc(F)c5CCC4C23)no1 (stereo partly shown) = 39
C[C@]12CCC3c4ccc(F)cc4CCC3C1[C@H](CCC(=O)Nc1ccc(F)cn1)c1c[nH]nc12 (stereo partly shown) = 10
C[C@]12CCC3c4cccc(F)c4CCC3C1[C@H](CCC(=O)N1CCNC(=O)C1)c1c[nH]nc12 (stereo partly shown) = 27

// returns reported Rabbit placenta inhibition % @100 nM for input C[C@]12CCC3c4ccccc4CCC3C1[C@H](CCC(=O)Nc1ccc(N3CCOCC3)cn1)c1c[nH]nc12 (stereo partly shown) 46

====

I'd be grateful if you could share measured Rabbit placenta inhibition % @100 nM for these entries.
# Tested on: HSD1 enzyme that is expressed in rabbit placenta tissue
# Procedure details: Inhibition of E1 to E2 conversion in rabbit placenta tissue homogenate
# Format: biochemical
# Condition info: compound 100 nM, 30 nM estrone, 1 mM β-NADPH, 30 min
Answers are plain numbers, in %.

Here is how some compounds turned out for Rabbit placenta inhibition % @100 nM.
CN(C)C(=O)c1ccc(NC(=O)CC[C@@H]2c3c[nH]nc3[C@@]3(C)CCC4c5ccc(Cl)cc5CCC4C23)nc1 (some centres unmarked) = 37
C[C@]12CCC3c4cccc(F)c4CCC3C1[C@H](CCC(=O)N1CCC3(CCOCC3)C1)c1c[nH]nc12 (some centres unmarked) = 14

Give measured Rabbit placenta inhibition % @100 nM for every item shown.
1. C[C@]12CCC3c4ccccc4CCC3C1[C@H](CCC(=O)Nc1cc(F)ccn1)c1c[nH]nc12 (some centres unmarked)
2. C[C@]12CCC3c4cccc(F)c4CCC3C1[C@H](CCC(=O)Nc1cc(F)ccn1)c1c[nH]nc12 (some centres unmarked)
3. C[C@]12CCC3c4ccccc4CCC3C1[C@H](CCC(=O)N1Cc3ccccc3C1)c1c[nH]nc12 (some centres unmarked)
4. COc1ccc(NC(=O)CC[C@@H]2c3c[nH]nc3[C@@]3(C)CCC4c5ccc(F)cc5CCC4C23)nn1 (some centres unmarked)
5. COc1ccnc(NC(=O)CC[C@@H]2c3c[nH]nc3[C@@]3(C)CCC4c5ccc(F)cc5CCC4C23)c1 (some centres unmarked)
6. CCN(CC)C(=O)CC[C@@H]1c2c[nH]nc2[C@@]2(C)CCC3c4cccc(F)c4CCC3C12 (some centres unmarked)

1: 44; 2: 64; 3: 14; 4: 45; 5: 30; 6: 10

Below are 4 compounds. Give each one its Rabbit placenta inhibition % @100 nM.
1. CN1CCC(N2CCN(C(=O)CC[C@@H]3c4c[nH]nc4[C@@]4(C)CCC5c6cccc(F)c6CCC5C34)CC2)CC1 (some centres unmarked)
2. Cc1ccnc(NC(=O)CC[C@@H]2c3c[nH]nc3[C@@]3(C)CCC4c5ccccc5CCC4C23)c1 (some centres unmarked)
3. Cc1ccc(NC(=O)CC[C@@H]2c3c[nH]nc3[C@@]3(C)CCC4c5ccccc5CCC4C23)nn1 (some centres unmarked)
4. C[C@]12CCC3c4ccccc4CCC3C1[C@H](CCC(=O)Nc1ccc(F)cn1)c1c[nH]nc12 (some centres unmarked)

1. 15
2. 58
3. 61
4. 23

List Rabbit placenta inhibition % @100 nM for every entry below, keeping the order given.
1. CN(CC1CC1)C(=O)CC[C@@H]1c2c[nH]nc2[C@@]2(C)CCC3c4cccc(F)c4CCC3C12 (some centres unmarked)
2. C[C@]12CCC3c4cccc(F)c4CCC3C1[C@H](CCC(=O)Nc1cccnn1)c1c[nH]nc12 (some centres unmarked)
3. Cc1ccnc(NC(=O)CC[C@@H]2c3c[nH]nc3[C@@]3(C)CCC4c5cccc(F)c5CCC4C23)c1 (some centres unmarked)
4. C[C@]12CCC3c4ccc(F)cc4CCC3C1[C@H](CCC(=O)Nc1cccc(F)n1)c1c[nH]nc12 (some centres unmarked)
5. C[C@]12CCC3c4cccc(F)c4CCC3C1[C@H](CCC(=O)N1CCCC1)c1c[nH]nc12 (some centres unmarked)
6. C[C@]12CCC3c4cccc(F)c4CCC3C1[C@H](CCC(=O)Nc1cc3c([nH]c1=O)CCCC3)c1c[nH]nc12 (some centres unmarked)
7. COc1ccc(NC(=O)CC[C@@H]2c3c[nH]nc3[C@@]3(C)CCC4c5cccc(F)c5CCC4C23)nn1 (some centres unmarked)
8. CC(C)(C)c1cc(NC(=O)CC[C@@H]2c3c[nH]nc3[C@@]3(C)CCC4c5cccc(F)c5CCC4C23)no1 (some centres unmarked)

1: 16; 2: 58; 3: 55; 4: 28; 5: 19; 6: 53; 7: 86; 8: 25

====

For each entry below, report its inhibition at 1 µM value.
# Assay target: recombinant human 17β-HSD2 (Homo sapiens, UniProt P37059)
# Construct: made in house; host or cells: Sd9 (Sf9) insect cells, baculovirus (Bac to Bac Expression System)
# Sequence (P37059 1-387): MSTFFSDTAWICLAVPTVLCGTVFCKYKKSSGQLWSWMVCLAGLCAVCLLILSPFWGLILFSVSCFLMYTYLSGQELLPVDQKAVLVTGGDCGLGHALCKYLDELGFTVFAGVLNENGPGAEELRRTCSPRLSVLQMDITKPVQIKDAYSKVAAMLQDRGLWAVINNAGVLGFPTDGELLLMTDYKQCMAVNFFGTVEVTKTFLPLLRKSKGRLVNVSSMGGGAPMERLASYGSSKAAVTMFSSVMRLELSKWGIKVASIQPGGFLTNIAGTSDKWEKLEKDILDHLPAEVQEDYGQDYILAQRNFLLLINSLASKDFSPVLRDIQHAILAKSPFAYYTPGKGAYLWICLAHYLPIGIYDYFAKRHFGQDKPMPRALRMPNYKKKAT
# Procedure details: Inhibition of recombinant human 17β-HSD2 (estradiol to estrone conversion, HPLC/radioactivity)
# Type: biochemical
# Condition info: compound 1 μM; 50 nM estradiol, 1 mM NADH, 30 min RT
Give bare numbers, in %.

CC(C)(C)NC(=O)CC[C@@H]1c2c[nH]nc2[C@@]2(C)CCC3c4ccccc4CCC3C12 (stereo partly shown) = 4
C[C@]12CCC3c4ccccc4CCC3C1[C@H](CCC(=O)Nc1ccccn1)c1c[nH]nc12 (stereo partly shown) = -1
C[C@]12CCC3c4cccc(F)c4CCC3C1[C@H](CCC(=O)Nc1ccc(N3CCOCC3)cn1)c1c[nH]nc12 (stereo partly shown) = 9
CN(CC(C)(C)O)C(=O)CC[C@@H]1c2c[nH]nc2[C@@]2(C)CCC3c4cccc(F)c4CCC3C12 (stereo partly shown) = 5
C[C@]12CCC3c4cccc(F)c4CCC3C1[C@H](CCC(=O)Nc1nncs1)c1c[nH]nc12 (stereo partly shown) = 3

Please look at the items below and tell me inhibition at 1 µM for each one, in order.
1. COc1ccnc(NC(=O)CC[C@@H]2c3c[nH]nc3[C@@]3(C)CCC4c5ccccc5CCC4C23)c1 (stereo partly shown)
2. C[C@]12CCC3c4ccccc4CCC3C1[C@H](CCC(=O)NC1CCOCC1)c1c[nH]nc12 (stereo partly shown)

1: -2; 2: 4
